Listing: MIC of selected compounds
Experiment: Growth inhibition of Staphylococcus aureus USA300
Starred links: 1 amine or outer side, 2 acyl side, 3 side chain; linkers in the order of their positions; H or OH if unused. Non-standard residues stand in square brackets, D forms with d. Residues, ends and D or L forms follow the SMILES beside them. *: point of attachment. X3 = C[C@H](CO[C@H](CC1CC2(CCC2)C1)[C@@H](C)C(=O)[*:2])N[*:1]; X1 = CCCCCC[C@@H](OC[C@@H](C)N[*:1])[C@@H](C)C(=O)[*:2]; X8 = CCCCCC[C@@H](O[C@@H](C)CN[*:1])[C@@H](C)C(=O)[*:2]; Cyclobutyl(trans-3-NH2) = N[C@H]1C[C@H](*)C1; Gly(cHept) = N[C@H](C(=O)O)C1CCCCCC1; aThr = C[C@H](O)[C@H](N)C(=O)O; NMeL = CN[C@@H](CC(C)C)C(=O)O; Chg = N[C@H](C(=O)O)C1CCCCC1; NMeNva = CCC[C@H](NC)C(=O)O; Dap = NC[C@H](N)C(=O)O; X15 = O=C(O)CCCNCCC*; X5 = NCCCNCCC*; X11 = NCCCC*
assayEndpoint: MIC (µM)

compound=CCCCCCCCCC[C@H]1OC(=O)CNC(=O)[C@H]([C@H](C)O)NC(=O)[C@H](CN)NC(=O)[C@H]([C@@H](C)CC)NC(=O)[C@H](CC(C)C)N(C)C(=O)[C@@H]1C unitstring=µM censorsymbol== reportedresult=13
compound="CCC[C@H]1C(=O)N[C@@H](C2CCCCCC2)C(=O)N[C@@H](CN)C(=O)N[C@@H](CO[C@H]2C[C@H](N)C2)C(=O)N[C@H](C)CO[C@H](CC2CC3(CCC3)C2)[C@@H](C)C(=O)N1C (cyclo([Dap]S(Cyclobutyl(trans-3-NH2))[X3][NMeNva][Gly(cHept)]))" unitstring=µM censorsymbol== reportedresult=25
compound="CCC[C@H]1C(=O)N[C@@H](C2CCCCCC2)C(=O)N[C@@H](CN)C(=O)N[C@@H](COCCCNCCCN)C(=O)N[C@H](C)CO[C@H](CC2CC3(CCC3)C2)[C@@H](C)C(=O)N1C (cyclo([Dap]S(X5)[X3][NMeNva][Gly(cHept)]))" unitstring=µM censorsymbol== reportedresult=18
compound="CCCCCC[C@H]1OC[C@@H](C)NC(=O)[C@H](COCCCCN)NC(=O)[C@H](CN)NC(=O)[C@H](C2CCCCCC2)NC(=O)[C@H](CCC)N(C)C(=O)[C@@H]1C (cyclo([Dap]S(X11)[X1][NMeNva][Gly(cHept)]))" unitstring=µM censorsymbol== reportedresult=71
compound="CCCCCC[C@H]1OC[C@@H](C)NC(=O)[C@H](COCCCNCCCC(=O)O)NC(=O)[C@H](CN)NC(=O)[C@H](C2CCCCCC2)NC(=O)[C@H](CCC)N(C)C(=O)[C@@H]1C (cyclo([Dap]S(X15)[X1][NMeNva][Gly(cHept)]))" unitstring=µM censorsymbol=> reportedresult=100
compound="CCCCCC[C@H]1O[C@@H](C)CNC(=O)[C@H]([C@H](C)O)NC(=O)[C@H](CN)NC(=O)[C@H](C2CCCCC2)NC(=O)[C@H](CC(C)C)N(C)C(=O)[C@@H]1C (cyclo([Chg][Dap][aThr][X8][NMeL]))" unitstring=µM censorsymbol== reportedresult=100
compound=CCCCCCCCCC[C@H]1OC(=O)CNC(=O)[C@H]([C@H](C)O)NC(=O)[C@H](Cc2c[nH]cn2)NC(=O)[C@H]([C@@H](C)CC)NC(=O)[C@H](CC(C)C)N(C)C(=O)[C@@H]1C unitstring=µM censorsymbol== reportedresult=25
compound=CCCCCC[C@H]1OC(=O)CNC(=O)[C@H]([C@H](C)O)NC(=O)[C@H](CN)NC(=O)[C@H](C2CCCCC2)NC(=O)[C@H](CCC)N(C)C(=O)[C@@H]1C unitstring=µM censorsymbol=> reportedresult=100
compound=CCCCCCCCCC[C@H]1OC(=O)CNC(=O)[C@H]([C@H](C)O)NC(=O)[C@H](CO)NC(=O)[C@H]([C@@H](C)CC)NC(=O)[C@H](CC(C)C)N(C)C(=O)[C@@H]1C unitstring=µM censorsymbol== reportedresult=25
